All figures here come from the RNAGym collection of RNA variant scans (doi:10.7554/elife.90254).

B1: LINE1-full (parent)
chain: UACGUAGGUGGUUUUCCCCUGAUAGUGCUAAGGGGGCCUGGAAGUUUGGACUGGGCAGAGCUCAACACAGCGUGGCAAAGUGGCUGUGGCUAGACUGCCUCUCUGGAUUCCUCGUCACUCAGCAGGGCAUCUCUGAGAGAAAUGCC

# Variants of: B1
# method-notes: self-cleavage, relative activity (ratio to wild type); higher = more cleavage; in vitro, sequencing; the parent is a self-cleaving ribozyme
Outcome: 1 for self-cleavage of at least 1; -1 for anything lower.

- var: "U14C G32C"
  group-label: 1
- var: "U52C U102C"
  group-label: 1

State whether the measured self-cleavage reaches 1, counting equality as reaching it, for U29C U104A
1

State whether the measured self-cleavage reaches 1, counting equality as reaching it, for U14C G105A
1

State whether the measured self-cleavage reaches 1, counting equality as reaching it, for A31G U91A
-1

State whether the measured self-cleavage reaches 1, counting equality as reaching it, for U45C U104C
1

State whether the measured self-cleavage reaches 1, counting equality as reaching it, for C19G A43G
-1

State whether the measured self-cleavage reaches 1, counting equality as reaching it, for A30G A77U
-1
